B1: FLAG-Atg16L1 full-length (FL) [mouse] / endogenous FIP200 (HEK293A) [human (endogenous in HEK293A)] (parent complex)
chain 1: MSSGLRAADFPRWKRHIAEELRRRDRLQRQAFEEIILQYTKLLEKSDLHSVLTQKLQAEKHDMPNRHEISPGHDGAWNDSQLQEMAQLRIKHQEELTELHKKRGELAQLVIDLNNQMQQKDKEIQMNEAKISEYLQTISDLETNCLDLRTKLQDLEVANQTLKDEYDALQITFTALEEKLRKTTEENQELVTRWMAEKAQEANRLNAENEKDSRRRQARLQKELAEAAKEPLPVEQDDDIEVIVDETSDHTEETSPVRAVSRAATKRLSQPAGGLLDSITNIFGLSESPLLGHHSSDAARRRSVSSIPVPQDIMDTHPASGKDVRVPTTASYVFDAHDGEVNAVQFSPGSRLLATGGMDRRVKLWEAFGDKCEFKGSLSGSNAGITSIEFDSAGAYLLAASNDFASRIWTVDDYRLRHTLTGHSGKVLSAKFLLDNARIVSGSHDRTLKLWDLRSKVCIKTVFAGSSCNDIVCTEQCVMSGHFDKKIRFWDIRSESVVREMELLGKITALDLNPERTELLSCSRDDLLKVIDLRTNAVKQTFSAPGFKCGSDWTRVVFSPDGSYVAAGSAEGSLYVWSVLTGKVEKVLSKQHSSSINAVAWAPSGLHVVSVDKGSRAVLWAQP
chain 2: MKLYVFLVNTGTTLTFDTELTVQTVADLKHAIQSKYKIAIQHQVLVVNGGECMAADRRVCTYSAGTDTNPIFLFNKEMILCDRPPAIPKTTFSTENDMEIKVEESLMMPAVFHTVASRTQLALEMYEVAKKLCSFCEGLVHDEHLQHQGWAAIMANLEDCSNSYQKLLFKFESIYSNYLQSIEDIKLKLTHLGTAVSVMAKIPLLECLTRHSYRECLGRLDSLPEHEDSEKAEMKRSTELVLSPDMPRTTNESLLTSFPKSVEHVSPDTADAESGKEIRESCQSTVHQQDETTIDTKDGDLPFFNVSLLDWINVQDRPNDVESLVRKCFDSMSRLDPRIIRPFIAECRQTIAKLDNQNMKAIKGLEDRLYALDQMIASCGRLVNEQKELAQGFLANQKRAENLKDASVLPDLCLSHANQLMIMLQNHRKLLDIKQKCTTAKQELANNLHVRLKWCCFVMLHADQDGEKLQALLRLVIELLERVKIVEALSTVPQMYCLAVVEVVRRKMFIKHYREWAGALVKDGKRLYEAEKSKRESFGKLFRKSFLRNRLFRGLDSWPPSFCTQKPRKFDCELPDISLKDLQFLQSFCPSEVQPFLRVPLLCDFEPLHQHVLALHNLVKAAQSLDEMSQTITDLLSEQKASVSQTSPQSASSPRMESTAGITTTTSPRTPPPLTVQDPLCPAVCPLEELSPDSIDAHTFDFETIPHPNIEQTIHQVSLDLDSLAESPESDFMSAVNEFVIEENLSSPNPISDPQSPEMMVESLYSSVINAIDSRRMQDTNVCGKEDFGDHTSLNVQLERCRVVAQDSHFSIQTIKEDLCHFRTFVQKEQCDFSNSLKCTAVEIRNIIEKVKCSLEITLKEKHQKELLSLKNEYEGKLDGLIKETEENENKIKKLKGELVCLEEVLQNKDNEFALVKHEKEAVICLQNEKDQKLLEMENIMHSQNCEIKELKQSREIVLEDLKKLHVENDEKLQLLRAELQSLEQSHLKELEDTLQVRHIQEFEKVMTDHRVSLEELKKENQQIINQIQESHAEIIQEKEKQLQELKLKVSDLSDTRCKLEVELALKEAETDEIKILLEESRAQQKETLKSLLEQETENLRTEISKLNQKIQDNNENYQVGLAELRTLMTIEKDQCISELISRHEEESNILKAELNKVTSLHNQAFEIEKNLKEQIIELQSKLDSELSALERQKDEKITQQEEKYEAIIQNLEKDRQKLVSSQEQDREQLIQKLNCEKDEAIQTALKEFKLEREVVEKELLEKVKHLENQIAKSPAIDSTRGDSSSLVAELQEKLQEEKAKFLEQLEEQEKRKNEEMQNVRTSLIAEQQTNFNTVLTREKMRKENIINDLSDKLKSTMQQQERDKDLIESLSEDRARLLEEKKKLEEEVSKLRSSSFVPSPYVATAPELYGACAPELPGESDRSAVETADEGRVDSAMETSMMSVQENIHMLSEEKQRIMLLERTLQLKEEENKRLNQRLMSQSMSSVSSRHSEKIAIRDFQVGDLVLIILDERHDNYVLFTVSPTLYFLHSESLPALDLKPGEGASGASRRPWVLGKVMEKEYCQAKKAQNRFKVPLGTKFYRVKAVSWNKKV

Variants of: B1
ASSAY REMARKS: FLAG immunoprecipitation, immunoblot quantification; parent: 1; read off a plot
Please provide measured ratio to parent for the entries that follow.

Exercise: # ratio to parent lookup, item chain 1 D212R
Solution: ~1.2

Exercise: # ratio to parent lookup, item chain 1 E208R
Solution: ~1.3

Exercise: # ratio to parent lookup, item chain 1 D238R
Solution: ~0.42

Exercise: # ratio to parent lookup, item chain 1 D237R
Solution: ~0.45

Exercise: # ratio to parent lookup, item chain 1 E235R
Solution: ~0.7

Exercise: # ratio to parent lookup, item chain 1 E226R
Solution: ~2.1

Exercise: # ratio to parent lookup, item chain 1 D239R
Solution: ~0.3

Exercise: # ratio to parent lookup, item chain 1 E241R
Solution: ~0.25

Exercise: # ratio to parent lookup, item chain 1 E230R
Solution: ~2.9
